target: NMDAR2B (Homo sapiens, UniProt Q13224)
Construct: expressed in transfected cells; host or cells: HEK cells (membrane extract)
Sequence (Q13224 27-1484, species assumed, other chains not shown): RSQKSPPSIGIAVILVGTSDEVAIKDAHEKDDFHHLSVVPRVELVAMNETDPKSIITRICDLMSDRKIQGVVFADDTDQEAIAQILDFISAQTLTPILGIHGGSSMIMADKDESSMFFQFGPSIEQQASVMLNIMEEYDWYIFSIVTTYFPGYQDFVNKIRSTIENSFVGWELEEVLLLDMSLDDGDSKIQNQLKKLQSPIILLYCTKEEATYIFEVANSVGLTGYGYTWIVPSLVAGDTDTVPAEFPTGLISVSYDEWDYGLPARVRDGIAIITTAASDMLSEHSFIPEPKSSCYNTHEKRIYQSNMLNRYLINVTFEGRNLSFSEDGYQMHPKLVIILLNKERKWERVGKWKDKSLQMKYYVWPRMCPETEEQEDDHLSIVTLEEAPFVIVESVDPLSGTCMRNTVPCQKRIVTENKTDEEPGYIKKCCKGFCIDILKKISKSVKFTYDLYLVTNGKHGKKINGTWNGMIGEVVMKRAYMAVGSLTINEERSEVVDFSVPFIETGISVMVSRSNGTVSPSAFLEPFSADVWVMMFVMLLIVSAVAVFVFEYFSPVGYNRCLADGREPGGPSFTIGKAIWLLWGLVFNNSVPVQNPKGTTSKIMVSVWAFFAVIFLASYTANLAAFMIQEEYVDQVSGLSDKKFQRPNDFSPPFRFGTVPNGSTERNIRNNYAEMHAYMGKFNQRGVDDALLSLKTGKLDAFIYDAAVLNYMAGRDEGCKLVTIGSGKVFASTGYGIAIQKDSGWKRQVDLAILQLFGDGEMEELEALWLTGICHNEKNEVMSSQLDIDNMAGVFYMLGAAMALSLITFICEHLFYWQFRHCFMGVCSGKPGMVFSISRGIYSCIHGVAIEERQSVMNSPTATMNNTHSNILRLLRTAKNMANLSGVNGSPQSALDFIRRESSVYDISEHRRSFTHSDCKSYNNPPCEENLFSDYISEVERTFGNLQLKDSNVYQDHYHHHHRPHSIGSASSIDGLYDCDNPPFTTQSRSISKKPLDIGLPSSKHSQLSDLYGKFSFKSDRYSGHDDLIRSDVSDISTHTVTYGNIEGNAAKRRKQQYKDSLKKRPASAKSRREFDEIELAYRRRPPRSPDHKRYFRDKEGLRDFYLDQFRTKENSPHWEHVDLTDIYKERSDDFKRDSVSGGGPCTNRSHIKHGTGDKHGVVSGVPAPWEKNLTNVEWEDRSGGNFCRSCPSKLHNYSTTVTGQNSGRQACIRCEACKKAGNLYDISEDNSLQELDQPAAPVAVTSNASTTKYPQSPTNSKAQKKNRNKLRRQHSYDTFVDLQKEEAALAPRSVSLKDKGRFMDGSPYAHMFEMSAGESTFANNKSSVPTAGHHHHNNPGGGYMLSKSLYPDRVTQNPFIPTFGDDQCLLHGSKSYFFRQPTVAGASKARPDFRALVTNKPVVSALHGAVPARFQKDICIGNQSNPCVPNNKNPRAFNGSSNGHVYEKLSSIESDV
assay.notes: NMDAR agonist assay, [3H]MK-801 binding, NMDAR2B expressing HEK cell membranes
Assay type: biochemical
recorded.conditions: 50 μM glutamate; relative to 1 mM glycine; read-out: NMDAR2B A: % maximal [3H]MK-801 binding relative to 1 mM glycine

- molecule: "O=C1N(Cc2ccc(F)cc2)CC=CCC12CCCN2 (single isomer, unassigned)"
  Emax: "> 100%"
- molecule: "O=C1NCCCC12CCCCN2 (single isomer, unassigned) [AX, 1,8-diazaspiro[5.5]undecan-7-one]"
  Emax: "< 100%"
- molecule: "O=C1N(Cc2ccccc2)CC=CCC12CCCN2 (single isomer, unassigned)"
  Emax: "< 100%"
- molecule: "O=C1NCCCC[C@]12CCCN2 [AU-1, (S)-1,7-diazaspiro[4.6]undecan-6-one]"
  Emax: "< 100%"
- molecule: "CN1CCCC12CC=CCNC2=O (single isomer, unassigned)"
  Emax: "> 100%"
- molecule: "CC(C)C(=O)N1CCCC12CC=CCNC2=O (single isomer, unassigned)"
  Emax: "< 100%"
- molecule: "CC(C)C(=O)N1CCC2(CCCN2C(=O)C(C)C)C1=O (single isomer, unassigned)"
  Emax: "< 100%"
- molecule: "O=C1NCCCCC12CCCNC2 (single isomer, unassigned) [CF, 2,8-diazaspiro[5.6]dodecan-7-one]"
  Emax: "< 100%"
- molecule: "O=C1NCCCCC12CCCCN2 (single isomer, unassigned) [AZ, 1,8-diazaspiro[5.6]dodecan-7-one]"
  Emax: "< 100%"
- molecule: "O=C1NCCCC[C@@]12CCCN2 [AU-2, (R)-1,7-diazaspiro[4.6]undecan-6-one]"
  Emax: "< 100%"
- molecule: "CC(=O)N1CCCC12CC=CCNC2=O (single isomer, unassigned)"
  Emax: "< 100%"
- molecule: "O=C1NCCCC12CCCNC2 (single isomer, unassigned) [CD, 2,8-diazaspiro[5.5]undecan-1-one]"
  Emax: "< 100%"

----------
assay.notes: Oral pharmacokinetics in Sprague Dawley rats (plasma, brain, CSF)
Type: in vivo
recorded.conditions: Sprague-Dawley, rat, plasma, po, 10 mg/kg, per os

- molecule: "O=C1NCCCC12CCCCN2 (single isomer, unassigned) [AX, 1,8-diazaspiro[5.5]undecan-7-one]"
  AUC(0-t) [ng·h/mL]: 6680
- molecule: "CC(C)CN1CCCC12CC=CCNC2=O (single isomer, unassigned)"
  AUC(0-t) [ng·h/mL]: 150
- molecule: "O=C1NCC=CCC12CC(F)(F)CN2 (single isomer, unassigned)"
  AUC(0-t) [ng·h/mL]: 30500
- molecule: "CC(=O)N1CCCC12CC=CCNC2=O (single isomer, unassigned)"
  AUC(0-t) [ng·h/mL]: 19600

----------
assay.notes: Microsomal stability (Human)
Assay type: in vitro ADME
recorded.conditions: after 60 minutes
observation.type: Microsomal (Human): percent of compound remaining (%)

- compound: "CC(C)(C)OC(=O)N1CCCC12CCCNC2=O (single isomer, unassigned) [EV-1]"
  test.value: 95
- compound: "O=C1NCCCC[C@]12CCCN2 [AU-1, (S)-1,7-diazaspiro[4.6]undecan-6-one]"
  test.value: 100
- compound: "CC(=O)N1CCCC12CC=CCNC2=O (single isomer, unassigned) [GG-2]"
  test.value: 88
- compound: "O=C1NCC=CCC12CCCN2Cc1ccccc1 (single isomer, unassigned) [GP-2]"
  test.value: 89
- compound: "CC(C)CN1CCCC12CC=CCNC2=O (single isomer, unassigned) [GI-2]"
  test.value: 114
- compound: "O=C1NCCCC12CCCCN2 (single isomer, unassigned) [AY, 1,8-diazaspiro[5.5]undecan-7-one]"
  test.value: 97
- compound: "O=C1NCC=CC[C@]12CCCN2 [GA, (R)-1,7-diazaspiro[4.6]undec-9-en-6-one]"
  test.value: 94
- compound: "CC(C)C(=O)N1CCCC12CC=CCNC2=O (single isomer, unassigned) [GH-1]"
  test.value: 104
- compound: "O=C1NCCCCC12CCCCN2 (single isomer, unassigned) [AZ, 1,8-diazaspiro[5.6]dodecan-7-one]"
  test.value: 92

----------
assay.notes: Oral pharmacokinetics in Sprague Dawley rats (plasma, brain, CSF)
Format: in vivo
recorded.conditions: Sprague-Dawley, rat, plasma, po, 10 mg/kg, per os, 10 mg/kg, plasma, read-out: Cmax
Cmax values, listed per item
observation.type: Cmax

- compound: "CC(C)(C)OC(=O)N1CCCC12CCCNC2=O (single isomer, unassigned) [EV-1]"
  test.value: "3690 ng/mL"
- compound: "NC(=O)CN1CCCC12CC=CCNC2=O (single isomer, unassigned) [GQ-2]"
  test.value: "5390 ng/mL"
- compound: "CN1CCCC12CC=CCNC2=O (single isomer, unassigned) [GC-1]"
  test.value: "2400 ng/mL"
- compound: "O=C1NCC=CC[C@]12CCCN2 [GA, (R)-1,7-diazaspiro[4.6]undec-9-en-6-one]"
  test.value: "1960 ng/mL"
- compound: "O=C1N(Cc2ccc(F)cc2)CC=CCC12CCCN2 (single isomer, unassigned) [GK-1]"
  test.value: "642 ng/mL"
- compound: "O=C1NCCCCC12CCCNC2 (single isomer, unassigned) [CF, 2,8-diazaspiro[5.6]dodecan-7-one]"
  test.value: "556 ng/mL"
- compound: "O=C1NCC=CCC12CC(F)(F)CN2 (single isomer, unassigned) [GL-2]"
  test.value: "5820 ng/mL"
- compound: "O=C1NCCCC12CCCN2 (centres unmarked) [EU-2, 1,7-diazaspiro[4.5]decan-6-one]"
  test.value: "1860 ng/mL"

----------
Vd values, listed per item
assay.notes: IV pharmacokinetics in Sprague Dawley rats
Type: in vivo
recorded.conditions: Sprague-Dawley, rat, in vivo, iv, 2 mg/kg, normal saline, read-out: Vss
observation.type: Vd

- compound: "CC(C)C(=O)N1CCCC12CC=CCNC2=O (single isomer, unassigned) [GH-2]"
  observation.type: "Vd"
  test.value: "0.75 L/kg"
- compound: "O=C1N(Cc2ccc(F)cc2)CC=CCC12CCCN2 (single isomer, unassigned) [GK-1]"
  observation.type: "Vd"
  test.value: "3.01 L/kg"
- compound: "CN1CCCC12CC=CCNC2=O (single isomer, unassigned) [GC-1]"
  observation.type: "Vd"
  test.value: "1.78 L/kg"
- compound: "CC(C)CN1CCCC12CC=CCNC2=O (single isomer, unassigned) [GI-2]"
  observation.type: "Vd"
  test.value: "2.25 L/kg"

----------
assay.notes: Oral pharmacokinetics in Sprague Dawley rats (plasma, brain, CSF)
Format: in vivo
recorded.conditions: Sprague-Dawley, rat, plasma, po, 10 mg/kg, per os
observation.type: AUC(0-t)

- compound: "NC(=O)CN1CCCC12CC=CCNC2=O (single isomer, unassigned)"
  observation.type: "AUC(0-t)"
  test.value: "5480 ng·h/mL"
- compound: "CC(C)C(=O)N1CCCC12CC=CCNC2=O (single isomer, unassigned)"
  observation.type: "AUC(0-t)"
  test.value: "11300 ng·h/mL"
- compound: "CC(C)C(=O)N1CCC2(CCCN2C(=O)C(C)C)C1=O (single isomer, unassigned)"
  observation.type: "AUC(0-t)"
  test.value: "2100 ng·h/mL"
- compound: "O=C1NCCCC12CCCN2 (stereo not shown) [EU-2, 1,7-diazaspiro[4.5]decan-6-one]"
  observation.type: "AUC(0-t)"
  test.value: "4430 ng·h/mL"

----------
assay.notes: Oral pharmacokinetics in Sprague Dawley rats (plasma, brain, CSF)
Format: in vivo
recorded.conditions: Sprague-Dawley, rat, plasma, po, 10 mg/kg, per os 10 mg/kg

- compound: "CC(C)C(=O)N1CCCC12CC=CCNC2=O (single isomer, unassigned)"
  bioavailability / %: 100
- compound: "CC(C)(C)OC(=O)N1CCCC12CCCNC2=O (single isomer, unassigned)"
  bioavailability / %: 45
- compound: "O=C1NCCCC[C@]12CCCN2 [AU-1, (S)-1,7-diazaspiro[4.6]undecan-6-one]"
  bioavailability / %: 75
- compound: "O=C1N(Cc2ccc(F)cc2)CC=CCC12CCCN2 (single isomer, unassigned)"
  bioavailability / %: 43
- compound: "CC(C)CN1CCCC12CC=CCNC2=O (single isomer, unassigned)"
  bioavailability / %: 9
- compound: "CC(=O)N1CCCC12CC=CCNC2=O (single isomer, unassigned)"
  bioavailability / %: 100
- compound: "O=C1NCC=CC[C@]12CCCN2 [GA, (R)-1,7-diazaspiro[4.6]undec-9-en-6-one]"
  bioavailability / %: 62
- compound: "NC(=O)CN1CCCC12CC=CCNC2=O (single isomer, unassigned)"
  bioavailability / %: 85
